# koff annotations
Molecular target: T1, mouse folate receptor alpha (mFRα), recombinant protein (mouse, UniProt P35846 25-232)
T1 construct: Bought recombinant proteins (e.g. biotinylated, Acro Biosystems FO1-M82E9); also called mFOLR1; Ms FOLR1
T1 sequence (P35846 25-232 limits assumed): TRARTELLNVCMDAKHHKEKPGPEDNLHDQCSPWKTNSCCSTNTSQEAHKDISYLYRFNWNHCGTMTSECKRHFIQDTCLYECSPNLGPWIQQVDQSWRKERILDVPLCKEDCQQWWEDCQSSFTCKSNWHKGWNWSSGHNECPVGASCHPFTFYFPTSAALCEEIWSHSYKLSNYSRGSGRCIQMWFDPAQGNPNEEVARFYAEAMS
Assay: BLI, biotinylated FOLR1 on streptavidin biosensors
experimental-readout: koff (s⁻¹)

binder	output-unit	observed-value
2HFO9(I51V)-NT (VHH, not shown: neurotensin tridecapeptide (NT) and any linker or tags of the fusion) VHH: QVQLQESGGGLVQAGGSLRLSCAASGSGFSGMIMGWYRQAPGKQRELVATVTSGGTTNYADSVKGRFTISRDNAKNTVLLQMNSLKPEDTAVYYCNAHFPGIYWGKGTQVTVSS	s⁻¹	0.012
2HFO42-NT (2HFO42 fused to neurotensin) (VHH) VHH: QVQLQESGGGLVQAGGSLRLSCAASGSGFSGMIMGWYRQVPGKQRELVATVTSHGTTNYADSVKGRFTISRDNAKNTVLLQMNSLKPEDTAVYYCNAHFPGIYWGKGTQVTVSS	s⁻¹	0.00222
2HFO9(G54H)-NT (VHH, not shown: neurotensin tridecapeptide (NT) and any linker or tags of the fusion) VHH: QVQLQESGGGLVQAGGSLRLSCAASGSGFSGMIMGWYRQAPGKQRELVATITSHGTTNYADSVKGRFTISRDNAKNTVLLQMNSLKPEDTAVYYCNAHFPGIYWGKGTQVTVSS	s⁻¹	0.00215
2HFO9 (I51V,G54H)-NT (VHH, not shown: neurotensin tridecapeptide (NT) and any linker or tags of the fusion) VHH: QVQLQESGGGLVQAGGSLRLSCAASGSGFSGMIMGWYRQAPGKQRELVATVTSHGTTNYADSVKGRFTISRDNAKNTVLLQMNSLKPEDTAVYYCNAHFPGIYWGKGTQVTVSS	s⁻¹	0.00236
2MFR67 (E72D, D72N, S74A)-NT (VHH, not shown: small tags and cut ends, Second substitution printed D72N; also called 2MFR67 triple mutant) VHH: QVQLQESGGGLVQAGGSLRLSCAASGSGFSGMIMGWYRQAPGKQRELVATVTSHGTTNYADSVKGRFTISRDNAKNTVLLQMNSLKPEDTAVYYCNAHFPGIYWGKGTQVTVSS	s⁻¹	0.00258
